Below, each entry is listed alongside its reported OD450 at 0.001 nM.
- target_or_test_system: T1, human MSLN-R2-his protein (human, UniProt Q13421 391-486)
- T1 construct: Region 2 of human MSLN, His-tagged; also called human MSLN-R2 protein; hMSLN-R2-his; not shown: His tag
- T1 sequence (Q13421 other isoform, or with tags, fused parts or gaps): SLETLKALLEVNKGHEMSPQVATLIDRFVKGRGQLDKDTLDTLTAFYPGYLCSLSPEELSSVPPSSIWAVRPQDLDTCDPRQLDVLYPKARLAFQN
- test_summary: ELISA, coated MSLN-R2;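 further: chimeric antibodies bound to blocked coated plates for 2 h at 37 °C, TMB colour development stopped with HCl, with a negative control antibody for comparison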
Reply numerically in OD450, unit not repeated.

Completed entries (count: 2):
* S009-F1.56.1 (antibody, human IgG1, kappa, V domains shown, Human-murine chimeric antibody, human IgG1/kappa constant regions) VH: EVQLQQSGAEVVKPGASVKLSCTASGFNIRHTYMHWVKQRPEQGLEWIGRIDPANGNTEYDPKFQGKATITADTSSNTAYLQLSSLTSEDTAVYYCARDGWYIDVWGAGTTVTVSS VL: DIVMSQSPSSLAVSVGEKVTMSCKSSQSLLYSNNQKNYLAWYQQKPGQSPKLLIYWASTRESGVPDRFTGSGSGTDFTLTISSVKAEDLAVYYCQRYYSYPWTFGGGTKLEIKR | 0.05
* S009-F1.35.24 (antibody, human IgG1, kappa, V domains shown, Human-murine chimeric antibody, human IgG1/kappa constant regions) VH: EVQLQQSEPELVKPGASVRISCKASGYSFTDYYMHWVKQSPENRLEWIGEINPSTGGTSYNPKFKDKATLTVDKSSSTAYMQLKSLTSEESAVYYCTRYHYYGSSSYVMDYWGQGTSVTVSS VL: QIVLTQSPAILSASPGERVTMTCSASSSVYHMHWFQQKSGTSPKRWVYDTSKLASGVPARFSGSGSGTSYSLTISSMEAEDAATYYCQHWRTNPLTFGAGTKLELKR | 0.05

// moving on: another record for OD450 at 0.001 nM
GET /values?readout=OD450 at 0.001 nM&item= S009-F1.59.1 (antibody, human IgG1, kappa, V domains shown, Human-murine chimeric antibody, human IgG1/kappa constant regions) VH: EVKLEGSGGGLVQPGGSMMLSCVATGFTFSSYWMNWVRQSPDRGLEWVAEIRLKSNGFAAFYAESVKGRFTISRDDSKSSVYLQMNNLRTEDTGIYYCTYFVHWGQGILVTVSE VL: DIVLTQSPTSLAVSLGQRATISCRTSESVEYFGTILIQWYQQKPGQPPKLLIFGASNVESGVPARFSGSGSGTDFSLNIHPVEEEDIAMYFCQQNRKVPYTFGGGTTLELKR
0.04
